Below, each entry is listed alongside its reported pEC50.
Test system: isolated rabbit urinary bladder
Experiment: Relaxation effect on potassium-induced contraction of isolated rabbit urinary bladder
Type: cell-based
Conditions: Oryctolagus cuniculus; 50% relaxation concentration; high-K+ (30 mM) pre-contracted rabbit bladder strips; relaxation as percentage of the maximum produced by 0.1 mM papaverine; read-out: EC50 value range
pEC50: −log10 of the molar value.

Give the reported value of pEC50 for this record: "Cc1ccc(-c2nc(CC(=O)O)c(-c3ccc(Cl)s3)o2)s1"
≥ 6.30

Give the reported value of pEC50 for this record: "CCc1nc(-c2csc(Cl)c2)[nH]c1-c1cccnc1"
5.52 to 6.00

Give the reported value of pEC50 for this record: "O=C(O)Cc1nc(-c2ccc3occc3c2)oc1-c1cc(Cl)cs1"
≥ 6.30

Give the reported value of pEC50 for this record: COCc1[nH]c(-c2ccc(Cl)s2)nc1-c1cccnc1.Cl.Cl [Preparation example 120, dihydrochloride]
≥ 6.30

Give the reported value of pEC50 for this record: "Cc1nc(-c2ccc(F)cc2)[nH]c1-c1ccsc1"
6.00 to 6.30

Give the reported value of pEC50 for this record: "CN(C)c1ccc(-c2nc(-c3ccc(Cl)cc3)c(CC(=O)O)o2)cn1"
6.00 to 6.30

Give the reported value of pEC50 for this record: "CN(C)c1ncc(-c2nc(CC(=O)O)c(-c3ccc(Cl)cc3)o2)cn1"
6.00 to 6.30

Give the reported value of pEC50 for this record: CSc1ccc(-c2nc(CC(=O)[O-])c(-c3ccsc3)o2)cn1.[Na+] [Preparation Example 365, acetic acid sodium salt]
5.52 to 6.00

Give the reported value of pEC50 for this record: "O=C(O)Cc1nc(-c2cc3ccccc3s2)sc1-c1ccc(Cl)s1"
≥ 6.30

Give the reported value of pEC50 for this record: "CN(C)c1ccc(-c2nc(-c3ccc(Cl)s3)c(CC(=O)O)o2)cn1"
5.52 to 6.00
